- experiment_notes: NOD1 signaling inhibitors, primary screen, cell-based, luminescence, uHTS (AID 1578);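 note: HEK-293T reporter cells stimulated with the NOD1 agonist gamma-tri-DAP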
- measurement_conditions: NOD1-driven NF-kB luciferase reporter cells, at 4 µM, stronger effect = higher value
The whole screen tested about 290,000 compounds, of which about 3,000 (1%) were called active. The sample holds actives, similar compounds and a random draw of the others, so the mix is not that of the screen.
attribute_measured: inhibition (%)
Numbers only; they are read as %.

Please review the entries below; each comes with its answer.
>>> df
                              molecule  experimental_result
0        N#Cc1cc2c(nc1SCc1cccnc1)CCCC2                -35.1
1            CC(=O)Nc1cccc(Cn2cccn2)c1                 11.3
2  Cc1nc2c3cc(Cl)ccc3n(CCN3CCCCC3)c2s1                 -5.1

Tell me its inhibition given CCN1CCN(C(c2cccs2)C(C)NC(=O)C(=O)N2CCCCC2)CC1 (stereo unspecified) as the entry.
-23.8

State its inhibition: N#CC1=C(S)N(c2ccc(F)cc2)C(c2ccco2)NC1=O (stereo unspecified)
-47.2

Supply measured inhibition of Cc1ccc(S(=O)(=O)CC(=O)c2ccccc2)cc1 in your reply.
-10

Let me know recorded inhibition for CC(C)OC(=O)c1cc2c(=O)[nH]c(C(Cl)(Cl)Cl)nc2o1 , thanks.
-25.8

Output measured inhibition for this item: O=C(CN1CCN(S(=O)(=O)N2CCCCCC2)CC1)Nc1ccc(Br)cc1
-32.9

Query inhibition for O=C1CCc2cc(S(=O)(=O)N3CCC(C(=O)NCc4ccccn4)CC3)ccc2N1
-15.8

Answer with the recorded inhibition of O=C(Nc1nc2ccccc2s1)c1ccc([N+](=O)[O-])o1 only.
6.5

Consider the molecule O=C(Nc1nc2cc3c(cc2s1)OCCO3)c1ccc([N+](=O)[O-])o1 and give its recorded inhibition.
-22.1

---

- experiment_notes: NOD1 signaling inhibitors, primary screen, cell-based, luminescence, uHTS (AID 1578);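 note: HEK-293T reporter cells stimulated with the NOD1 agonist gamma-tri-DAP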
- measurement_conditions: NOD1-driven NF-kB luciferase reporter cells, at 4 µM, stronger effect = higher value
Among all 290,000 compounds or so, about 3,000 (1%) were called active. The list comes from a sample in which actives are over-represented; it also holds close analogues and randomly drawn compounds.
attribute_measured: inhibition (%)
Answer with a number only, understood to be in %.

In [3]: df
Out[3]:
                                   compound  units_label  experimental_result
0  COc1ccc(S(=O)(=O)N(C)C)cc1NC(=O)[C@H](Cc1ccccc1)N1C(=O)c2ccccc2C1=O            %                    2
1   COc1ccc(OCCC(=O)OCC(=O)NC(=O)NC(C)C)cc1            %                 -3.2
2           Cc1cccc(NC(=O)Nc2ccc(C#N)cc2)n1            %                 62.7
3      Cc1csc2c(NC3CCN(Cc4ccccc4)CC3)ncnc12            %                    5
4     Cc1sc2ncnc(NC3CCN(Cc4ccccc4)CC3)c2c1C            %                 42.7

Then there is this compound:
Answer with the recorded inhibition of CCOc1cccc(NC(=O)C2CC(=O)N(C)C(=Nc3ccccc3)S2)c1 (stereo not drawn) only.
5.5
